- Test system: HeLa cells
- PROCEDURE_TEXT: Cell proliferation assay, photographic image analysis of proliferation, apoptosis and death (PAD assay), HeLa
- Type: cell-based
- Design: key: “+” indicates that the compound exibits inhibitory activity; “−” indicates that low or no inhibitory activity was observed
- EXPERIMENTAL_PARAMETERS: 6 concentrations tested
MEASURED_ATTRIBUTE: PAD Assay, HELA 6 pt

MOLECULE | STUDY_SYSTEM | MEASURED_ATTRIBUTE | RESULT
O=[N+]([O-])c1ccc(Oc2c(Cl)cc(S(=O)(=O)Nc3ccccc3I)cc2Cl)c(Cl)c1 [Compound 209] | HeLa cells | PAD Assay, HELA 6 pt | +
O=[N+]([O-])c1ccc(Oc2c(Cl)cc(S(=O)(=O)Nc3ccncc3)cc2Cl)c(Cl)c1 [Example 221] | HeLa cells | PAD Assay, HELA 6 pt | −
O=[N+]([O-])c1ccc(Oc2c(Cl)cc(S(=O)(=O)Nc3ccccc3Cl)cc2Cl)c(Cl)c1 [Example 156] | HeLa cells | PAD Assay, HELA 6 pt | +
